All values here come from paper PMC12529666.

Assayed Target: AGO2 A367P (Homo sapiens, UniProt Q9UKV8 1-859, A367P;S387D;S824A;S828D;S831D;S834A)
Sequence (Q9UKV8 whole entry A367P/S387D/S824A/S828D/S831D/S834A): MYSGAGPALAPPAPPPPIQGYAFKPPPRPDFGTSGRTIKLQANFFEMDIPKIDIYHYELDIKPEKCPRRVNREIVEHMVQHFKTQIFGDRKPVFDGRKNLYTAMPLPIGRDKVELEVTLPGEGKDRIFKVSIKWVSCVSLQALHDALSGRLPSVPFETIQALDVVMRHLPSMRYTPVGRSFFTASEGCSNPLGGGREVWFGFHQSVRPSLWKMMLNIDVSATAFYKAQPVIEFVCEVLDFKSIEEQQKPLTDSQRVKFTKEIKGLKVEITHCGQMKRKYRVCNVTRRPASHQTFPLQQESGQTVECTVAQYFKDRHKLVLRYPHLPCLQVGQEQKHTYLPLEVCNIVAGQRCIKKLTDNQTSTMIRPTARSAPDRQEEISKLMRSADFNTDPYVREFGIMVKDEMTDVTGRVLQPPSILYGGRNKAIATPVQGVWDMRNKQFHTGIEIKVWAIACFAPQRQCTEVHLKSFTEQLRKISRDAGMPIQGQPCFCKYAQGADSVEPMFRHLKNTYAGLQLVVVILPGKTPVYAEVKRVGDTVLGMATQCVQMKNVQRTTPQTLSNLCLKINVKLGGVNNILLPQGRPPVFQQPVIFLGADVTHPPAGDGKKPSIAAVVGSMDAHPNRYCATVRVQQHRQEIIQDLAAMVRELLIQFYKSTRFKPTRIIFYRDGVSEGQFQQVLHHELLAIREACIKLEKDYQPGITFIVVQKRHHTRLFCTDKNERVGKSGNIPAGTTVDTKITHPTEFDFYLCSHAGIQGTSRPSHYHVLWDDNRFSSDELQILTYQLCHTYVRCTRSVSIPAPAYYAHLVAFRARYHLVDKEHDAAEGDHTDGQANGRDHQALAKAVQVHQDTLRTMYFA
Method Summary: RNA Bind-n-Seq (nitrocellulose filter binding and sequencing); miR-122 guide loaded in AGO2; 60 min incubation; 30 mM Tris pH 8.0, 100 mM potassium acetate, 2 mM magnesium acetate, 0.5 mM TCEP, 0.005% NP-40, 0.01 mg/ml yeast tRNA; 3 nM AGO2-miR-122, 100 nM RNA library; 60; high values mean tight binding
Test Conditions: protein: recombinant; tags: His6 (N-terminal, pFastBac HTA)
binding signal overview

| Binder | binding signal |
| --- | --- |
| ACGCTTTA (ssRNA, constant regions annealed to DNA blockers; guide miR-122 5' phosphate) RNA 1: GAGUUCUACAGUCCGACGAUCCCAACACGCUUUACACCUGGAAUUCUCGGGUGCCAA RNA 2: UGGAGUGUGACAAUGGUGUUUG DNA 1: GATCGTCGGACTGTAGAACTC DNA 2: TTGGCACCCGAGAATTCCA | 0.195 fold enrichment over input |
| GTGCTTTG (ssRNA, constant regions annealed to DNA blockers; guide miR-122 5' phosphate) RNA 1: GAGUUCUACAGUCCGACGAUCCCAACGUGCUUUGCACCUGGAAUUCUCGGGUGCCAA RNA 2: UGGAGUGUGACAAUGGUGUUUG DNA 1: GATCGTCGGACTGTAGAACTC DNA 2: TTGGCACCCGAGAATTCCA | 0.177 fold enrichment over input |
| ATATCTCG (ssRNA, constant regions annealed to DNA blockers; guide miR-122 5' phosphate) RNA 1: GAGUUCUACAGUCCGACGAUCCCAACAUAUCUCGCACCUGGAAUUCUCGGGUGCCAA RNA 2: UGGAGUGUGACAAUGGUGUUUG DNA 1: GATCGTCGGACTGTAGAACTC DNA 2: TTGGCACCCGAGAATTCCA | 0.124 fold enrichment over input |
| GTGTCCCG (ssRNA, constant regions annealed to DNA blockers; guide miR-122 5' phosphate) RNA 1: GAGUUCUACAGUCCGACGAUCCCAACGUGUCCCGCACCUGGAAUUCUCGGGUGCCAA RNA 2: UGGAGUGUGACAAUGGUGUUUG DNA 1: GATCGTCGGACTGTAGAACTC DNA 2: TTGGCACCCGAGAATTCCA | 0.126 fold enrichment over input |
| ATGTTTCG (ssRNA, constant regions annealed to DNA blockers; guide miR-122 5' phosphate) RNA 1: GAGUUCUACAGUCCGACGAUCCCAACAUGUUUCGCACCUGGAAUUCUCGGGUGCCAA RNA 2: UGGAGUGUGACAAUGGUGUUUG DNA 1: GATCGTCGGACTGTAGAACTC DNA 2: TTGGCACCCGAGAATTCCA | 0.123 fold enrichment over input |
| ATGCCTTA (ssRNA, constant regions annealed to DNA blockers; guide miR-122 5' phosphate) RNA 1: GAGUUCUACAGUCCGACGAUCCCAACAUGCCUUACACCUGGAAUUCUCGGGUGCCAA RNA 2: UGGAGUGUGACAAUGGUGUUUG DNA 1: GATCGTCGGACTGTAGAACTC DNA 2: TTGGCACCCGAGAATTCCA | 0.179 fold enrichment over input |
| GTATCTTG (ssRNA, constant regions annealed to DNA blockers; guide miR-122 5' phosphate) RNA 1: GAGUUCUACAGUCCGACGAUCCCAACGUAUCUUGCACCUGGAAUUCUCGGGUGCCAA RNA 2: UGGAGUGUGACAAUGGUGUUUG DNA 1: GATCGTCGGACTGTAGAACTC DNA 2: TTGGCACCCGAGAATTCCA | 0.127 fold enrichment over input |
| ACATCTCA (ssRNA, constant regions annealed to DNA blockers; guide miR-122 5' phosphate) RNA 1: GAGUUCUACAGUCCGACGAUCCCAACACAUCUCACACCUGGAAUUCUCGGGUGCCAA RNA 2: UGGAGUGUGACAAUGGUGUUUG DNA 1: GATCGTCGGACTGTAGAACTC DNA 2: TTGGCACCCGAGAATTCCA | 0.613 fold enrichment over input |
| ATGCCTTG (ssRNA, constant regions annealed to DNA blockers; guide miR-122 5' phosphate) RNA 1: GAGUUCUACAGUCCGACGAUCCCAACAUGCCUUGCACCUGGAAUUCUCGGGUGCCAA RNA 2: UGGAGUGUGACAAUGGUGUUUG DNA 1: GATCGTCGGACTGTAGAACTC DNA 2: TTGGCACCCGAGAATTCCA | 0.131 fold enrichment over input |
| GCACCTCG (ssRNA, constant regions annealed to DNA blockers; guide miR-122 5' phosphate) RNA 1: GAGUUCUACAGUCCGACGAUCCCAACGCACCUCGCACCUGGAAUUCUCGGGUGCCAA RNA 2: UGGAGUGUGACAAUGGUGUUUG DNA 1: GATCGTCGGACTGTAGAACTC DNA 2: TTGGCACCCGAGAATTCCA | 0.15 fold enrichment over input |
| ATGTCTTG (ssRNA, constant regions annealed to DNA blockers; guide miR-122 5' phosphate) RNA 1: GAGUUCUACAGUCCGACGAUCCCAACAUGUCUUGCACCUGGAAUUCUCGGGUGCCAA RNA 2: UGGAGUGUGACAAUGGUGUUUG DNA 1: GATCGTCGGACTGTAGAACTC DNA 2: TTGGCACCCGAGAATTCCA | 0.128 fold enrichment over input |
| ACGTTCCG (ssRNA, constant regions annealed to DNA blockers; guide miR-122 5' phosphate) RNA 1: GAGUUCUACAGUCCGACGAUCCCAACACGUUCCGCACCUGGAAUUCUCGGGUGCCAA RNA 2: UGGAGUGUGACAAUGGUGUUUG DNA 1: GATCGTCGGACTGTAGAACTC DNA 2: TTGGCACCCGAGAATTCCA | 0.128 fold enrichment over input |
| ACGCCCTA (ssRNA, constant regions annealed to DNA blockers; guide miR-122 5' phosphate) RNA 1: GAGUUCUACAGUCCGACGAUCCCAACACGCCCUACACCUGGAAUUCUCGGGUGCCAA RNA 2: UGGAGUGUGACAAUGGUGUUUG DNA 1: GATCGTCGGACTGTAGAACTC DNA 2: TTGGCACCCGAGAATTCCA | 0.194 fold enrichment over input |
| ACACCTCG (ssRNA, constant regions annealed to DNA blockers; guide miR-122 5' phosphate) RNA 1: GAGUUCUACAGUCCGACGAUCCCAACACACCUCGCACCUGGAAUUCUCGGGUGCCAA RNA 2: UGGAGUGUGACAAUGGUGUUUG DNA 1: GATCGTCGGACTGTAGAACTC DNA 2: TTGGCACCCGAGAATTCCA | 0.179 fold enrichment over input |
| ACATTTCA (ssRNA, constant regions annealed to DNA blockers; guide miR-122 5' phosphate) RNA 1: GAGUUCUACAGUCCGACGAUCCCAACACAUUUCACACCUGGAAUUCUCGGGUGCCAA RNA 2: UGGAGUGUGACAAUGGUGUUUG DNA 1: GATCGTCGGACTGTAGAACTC DNA 2: TTGGCACCCGAGAATTCCA | 0.727 fold enrichment over input |
